- assayed-target: UniProt:Q03431
- Sequence (Q03431 27-593): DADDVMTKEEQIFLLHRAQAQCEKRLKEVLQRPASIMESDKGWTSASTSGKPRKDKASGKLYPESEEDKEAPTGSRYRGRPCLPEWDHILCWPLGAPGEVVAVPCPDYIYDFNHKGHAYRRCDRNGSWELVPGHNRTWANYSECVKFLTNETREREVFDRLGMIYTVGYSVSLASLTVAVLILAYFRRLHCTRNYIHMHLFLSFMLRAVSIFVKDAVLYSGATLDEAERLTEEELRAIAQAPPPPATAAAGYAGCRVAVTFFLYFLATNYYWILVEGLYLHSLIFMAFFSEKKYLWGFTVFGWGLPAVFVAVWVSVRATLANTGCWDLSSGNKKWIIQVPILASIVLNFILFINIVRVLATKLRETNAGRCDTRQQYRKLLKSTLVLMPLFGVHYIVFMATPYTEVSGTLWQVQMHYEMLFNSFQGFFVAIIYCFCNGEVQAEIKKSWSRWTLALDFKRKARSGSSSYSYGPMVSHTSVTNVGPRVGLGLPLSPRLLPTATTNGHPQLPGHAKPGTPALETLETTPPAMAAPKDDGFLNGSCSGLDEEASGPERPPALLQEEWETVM
- protocol-description: In vitro cAMP signal activity via the human PTH1R (HKRK-B7 cells)
- Type: cell-based
- study-conditions: concentration giving 20% cAMP signaling activity, 100 nM human PTH(1-34) = 100%
Documented EC20 across a set of molecules
I only need the number, in µM, no unit after it.

Cc1cc(N2C(=O)CNC2=O)cc(C)c1CCS(=O)(=O)N1CCC2(CC1)N=C(c1ccc(F)c(C(F)(F)F)c1)NC2=O [Comparative Example 3, reference compound]    2.0
Cc1cc(N2C(=O)NC(=O)C2(C)C)cc(C)c1CCS(=O)(=O)N1CCC2(CC1)N=C(c1ccc(F)c(OC(F)(F)F)c1)NC2=O    1.3
Cc1cc(N2C(=O)NC(=O)C2(C)C)cc(C)c1CCS(=O)(=O)N1CCC2(CC1)N=C(c1ccc(OC(F)(F)F)cc1)NC2=O    1.1

For Cc1cc(N2C(=O)CNC2=O)ccc1CCS(=O)(=O)N1CCC2(CC1)N=C(c1cccc(OC(F)(F)F)c1)NC2=O [Comparative Example 1, reference compound] the molecule record lists EC20 as 1.5

For `Cc1cc(N2C(=O)NC(=O)C23CCN(C)CC3)cc(C)c1CCS(=O)(=O)N1CCC2(CC1)N=C(c1ccc(OC(F)(F)F)cc1)NC2=O` the molecule record lists EC20 as 2.6

For `Cc1cc(N2C(=O)NC(=O)C23CC3)cc(C)c1CCS(=O)(=O)N1CCC2(CC1)N=C(c1ccc(OC(F)(F)F)cc1)NC2=O` the molecule record lists EC20 as 1.5

* * *

- protocol-description: Metabolic stability using human liver microsomes
- Assay type: in vitro ADME
- study-conditions: pH 7.4; human liver microsomes 0.5 mg/mL, compound 1 μM, NADPH 1 mM, 37° C.; read-out: Clearance
Documented microsomal CLint at 1 μM across a set of molecules

Illustrative cases are given below, each with its answer.
Cc1cc(N2C(=O)CNC2=O)cc(C)c1CCS(=O)(=O)N1CCC2(CC1)N=C(c1cccc(OC(F)(F)F)c1)NC2=O [Comparative Example 2, reference compound]    61 µL/min/mg
Cc1cc(N2C(=O)NC(=O)C23CCCC3)cc(C)c1CCS(=O)(=O)N1CCC2(CC1)N=C(c1ccc(OC(F)(F)F)cc1)NC2=O    35 µL/min/mg
Cc1cc(N2C(=O)NC(=O)C23CC3)cc(C)c1CCS(=O)(=O)N1CCC2(CC1)N=C(c1ccc(OC(F)(F)F)cc1)NC2=O    19 µL/min/mg
Cc1cc(N2C(=O)NC(=O)C2(C)C)cc(C)c1CCS(=O)(=O)N1CCC2(CC1)N=C(c1ccc(OC(F)(F)F)c(F)c1)NC2=O    27 µL/min/mg
CCC1CCC(C2=NC3(CCN(S(=O)(=O)CCc4ccc(N5C(=O)NC(=O)C5C)cc4C)CC3)C(=O)N2)CC1 (stereo not drawn) [Comparative Example 5, reference compound]    112 µL/min/mg

For Cc1cc(N2C(=O)CNC2=O)cc(C)c1CCS(=O)(=O)N1CCC2(CC1)N=C(c1ccc(F)c(C(F)(F)F)c1)NC2=O [Comparative Example 3, reference compound] the molecule record lists microsomal CLint at 1 μM as 74 µL/min/mg

For CCC1CCC(C2=NC3(CCN(S(=O)(=O)CCc4ccc(N5CC(=O)NC5=O)cc4C)CC3)C(=O)N2)CC1 (stereo not drawn) [Comparative Example 4, reference compound] the molecule record lists microsomal CLint at 1 μM as 74 µL/min/mg

For `Cc1cc(N2C(=O)NC(=O)C23CCCC3)cc(C)c1CCS(=O)(=O)N1CCC2(CC1)N=C(c1cccc(C(F)(F)F)c1)NC2=O` the molecule record lists microsomal CLint at 1 μM as 63 µL/min/mg

For `Cc1cc(N2C(=O)NC(=O)C23COC3)cc(C)c1CCS(=O)(=O)N1CCC2(CC1)N=C(c1ccc(OC(F)(F)F)cc1)NC2=O` the molecule record lists microsomal CLint at 1 μM as 29 µL/min/mg

For `Cc1cc(N2C(=O)NC(=O)C2(C)C)cc(C)c1CCS(=O)(=O)N1CCC2(CC1)N=C(c1ccc(F)c(OC(F)(F)F)c1)NC2=O` the molecule record lists microsomal CLint at 1 μM as 21 µL/min/mg

For `Cc1cc(N2C(=O)NC(=O)C2(C)C)cc(C)c1CCS(=O)(=O)N1CCC2(CC1)N=C(c1ccc(F)c(C(F)(F)F)c1)NC2=O` the molecule record lists microsomal CLint at 1 μM as 29 µL/min/mg

For `Cc1cc(N2C(=O)NC(=O)C2(C)C)cc(C)c1CCS(=O)(=O)N1CCC2(CC1)N=C(c1cccc(C(F)(F)F)c1)NC2=O` the molecule record lists microsomal CLint at 1 μM as 29 µL/min/mg
